Tested on: HCT-116 cell line
Assay: Inhibition of cell growth, tetrazolium salt (MTT) assay
Type: cell-based
Settings: 0.25 μM compound; HCT-116; Table 3
Procedure: Inhibition of Cell Growth: Assessment of Cytotoxicity: Inhibition of cell growth was measured using the tetrazolium salt assay, which is based on the ability of viable cells to reduce 3-(4,5-dimethylthiazol-2-yl)-2,5-[2H]-diphenyltetrazolium bromide (MTT) to formazan (Mossman, Journal of Immunological Methods, vol. 65 (1983), pp. 55-58). The water-insoluble purple formazan product was then detected spectrophotometrically. […]
readout.label: HCT-116 % Inhibition at 0.25 μM (%)

>>> result_value("COC(=O)c1sccc1S(=O)(=O)N1CCC(Nc2nc(N)c(C(=O)c3c(F)cccc3F)s2)CC1")
40
>>> result_value("Nc1nc(NC2CCN(S(=O)(=O)c3c(Cl)cc(C(F)(F)F)cc3Cl)CC2)sc1C(=O)c1c(F)cccc1F")
24
>>> result_value("Nc1nc(NC2CCN(S(=O)(=O)c3ccccc3)CC2)sc1C(=O)c1c(F)cccc1F")
33
>>> result_value("CS(=O)(=O)c1ccccc1S(=O)(=O)N1CCC(Nc2nc(N)c(C(=O)c3c(F)cccc3F)s2)CC1")
19
>>> result_value("CC(C)(C)c1ccc(S(=O)(=O)N2CCC(Nc3nc(N)c(C(=O)c4c(F)cccc4F)s3)CC2)cc1")
31
>>> result_value("Cc1nn(C)c(Cl)c1S(=O)(=O)N1CCC(Nc2nc(N)c(C(=O)c3c(F)cccc3F)s2)CC1")
25
>>> result_value("CN(C)c1cccc2c(S(=O)(=O)N3CCC(Nc4nc(N)c(C(=O)c5c(F)cccc5F)s4)CC3)cccc12 [Example P2]")
24
>>> result_value("Nc1nc(NC2CCN(S(=O)(=O)c3ccc(Oc4ccncc4)cc3)CC2)sc1C(=O)c1c(F)cccc1F")
26
>>> result_value("Cc1ccc2cc(S(=O)(=O)N3CCC(Nc4nc(N)c(C(=O)c5c(F)cccc5F)s4)CC3)ccc2c1")
34
>>> result_value("Nc1nc(NC2CCN(S(=O)(=O)c3ccc4ccccc4c3)CC2)sc1C(=O)c1c(F)cccc1F")
23
>>> result_value("CN(C)c1ccc(N=Nc2ccc(S(=O)(=O)N3CCC(Nc4nc(N)c(C(=O)c5c(F)cccc5F)s4)CC3)cc2)cc1")
36
>>> result_value("CCCCOc1ccc(C(C)(C)CC)cc1S(=O)(=O)N1CCC(Nc2nc(N)c(C(=O)c3c(F)cccc3F)s2)CC1")
27
>>> result_value("Nc1nc(NC2CCN(S(=O)(=O)c3ccc(Cl)cc3)CC2)sc1C(=O)c1c(F)cccc1F")
25
>>> result_value("Nc1nc(NC2CCN(S(=O)(=O)c3ccc(F)cc3F)CC2)sc1C(=O)c1c(F)cccc1F")
23
>>> result_value("Nc1nc(NC2CCN(S(=O)(=O)c3ccc(Cl)s3)CC2)sc1C(=O)c1c(F)cccc1F")
26
